Below: molecules with IC50 recorded for Tyrosine-protein kinase TXK (Homo sapiens) in separate published works.
assay metric: IC50 (nM)

P. CC#CC(=O)N(C)[C@@H](C)c1nc(-c2ccc(C(=O)Nc3ccccn3)c(OC)c2)c2c(N)nccn12
Q. C=CC(=O)N1CC[C@]2(C1)C[C@H](n1c(NC(=O)c3cc(C4CCCCC4)no3)nc3cc(CN4CCCC4)ccc31)C2
R. C=CC(=O)N1CC[C@]2(C1)C[C@H](n1c(NC(=O)c3ccc(-c4ccc(OC)nc4)s3)nc3ccccc31)C2
Sort the items above on IC50, descending. Sort the labels as requested; that list is your answer.
R, P, Q

====

Below: compounds with IC50 recorded for Tyrosine-protein kinase TXK (Homo sapiens, UniProt P42681) in separate published works.
assay metric: IC50 (nM)

Recorded results for 5 compounds are shown here.
C=CC(=O)N1CC[C@]2(C1)C[C@H](n1c(NC(=O)c3ccnc(C)c3)nc3cc(CN[C@@H](C)C(C)(C)C)ccc31)C2; 0.99
C=CC(=O)N1CC[C@]2(C1)C[C@H](n1c(NC(=O)c3cccs3)nc3ccccc31)C2; 3.33
CC#CC(=O)N(C)[C@@H](C)c1nc(-c2ccc(C(=O)Nc3ccc(C)cn3)cc2)c2c(N)nccn12; 3.9
C=CC(=O)N1CC[C@]2(C1)C[C@H](n1c(NC(=O)c3cc(C)no3)nc3cc(CN4CCOCC4)ccc31)C2; 3.02
C=CC(=O)N1CC[C@]2(C1)C[C@H](n1c(NC(=O)c3ccc(-c4cccnc4)s3)nc3ccccc31)C2; 0.51

a. C=CC(=O)Nc1cc(CC(=O)OC)cc(-c2cnc3ccccc3n2)c1
b. C=CC(=O)N1CC[C@]2(C1)C[C@H](n1c(NC(=O)c3ccc(-c4ccnnc4)s3)nc3ccccc31)C2
Out of a and b , name the one with the higher IC50. Lab note: record the label of whichever item you select.
a
(a: 14.9 nM, b: 0.22 nM)
